target: hPAD4 enzyme (Homo sapiens (Human)); assay: RFMS1 assay (RapidFire mass spectrometry, BAEE substrate); format: biochemical; settings: 5 nM hPAD4, 250 μM BAEE, 30 min preincubation at 37° C., 90 min reaction; read-out: RFMS 1 IC50
Sequence (Q9UM07 whole entry): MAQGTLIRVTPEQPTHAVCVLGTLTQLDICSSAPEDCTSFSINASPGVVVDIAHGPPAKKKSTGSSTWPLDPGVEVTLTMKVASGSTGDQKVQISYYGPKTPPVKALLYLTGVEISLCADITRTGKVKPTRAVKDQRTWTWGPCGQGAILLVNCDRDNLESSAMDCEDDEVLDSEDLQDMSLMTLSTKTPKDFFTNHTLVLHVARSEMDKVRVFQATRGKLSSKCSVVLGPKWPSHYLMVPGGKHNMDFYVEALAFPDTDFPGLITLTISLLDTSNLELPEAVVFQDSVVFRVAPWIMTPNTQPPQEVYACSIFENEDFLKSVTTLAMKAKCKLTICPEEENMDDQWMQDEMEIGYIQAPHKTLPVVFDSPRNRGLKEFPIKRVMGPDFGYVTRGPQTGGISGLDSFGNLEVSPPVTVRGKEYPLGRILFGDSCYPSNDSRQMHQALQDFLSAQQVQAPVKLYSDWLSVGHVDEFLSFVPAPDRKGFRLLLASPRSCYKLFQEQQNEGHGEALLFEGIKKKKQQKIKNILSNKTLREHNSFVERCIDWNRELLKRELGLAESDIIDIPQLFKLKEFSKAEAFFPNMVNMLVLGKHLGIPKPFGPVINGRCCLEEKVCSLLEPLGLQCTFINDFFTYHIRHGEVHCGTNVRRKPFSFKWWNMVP
Provide the recorded IC50 for the entries that follow.

Input: # return IC50 of Cn1c(-c2cc3ccccc3n2CC2CC2)nc2cc3c(c(F)c21)CCN(C[C@H](N)CF)C3=O (system: hPAD4 enzyme (Homo sapiens (Human)))
Output: 101 to 500 nM

Input: Report measured IC50 on hPAD4 enzyme (Homo sapiens (Human)); entry: Cn1c(-c2cc3cccc(OCCn4cncn4)c3n2CC2CC2)nc2cc3c(cc21)CCN(C[C@H](N)CF)C3=O
Output: ≤ 10 nM

Input: Consider the molecule Cn1c(-c2cc3cccc(OCCn4cnnc4)c3n2CC2CC2)nc2cc3c(cc21)CCN(C[C@H](N)CF)C3=O tested on hPAD4 enzyme (Homo sapiens (Human)); state its IC50.
Output: 11 to 100 nM

Input: # return IC50 of COc1cccc2cc(-c3nc4cc5c(cc4n3C)CCN(C[C@H](N)C(C)F)C5=O)n(CC3CC3)c12 (some centres unmarked) [Example 15b] (system: hPAD4 enzyme (Homo sapiens (Human)))
Output: 101 to 500 nM

Input: State IC50 (hPAD4 enzyme (Homo sapiens (Human))) of C[C@@H](N)CN1CCc2c(cc3nc(-c4cc5ccccc5n4CC4CC4)n(C)c3c2F)C1=O .
Output: 101 to 500 nM

Input: Report measured IC50 on hPAD4 enzyme (Homo sapiens (Human)); entry: COc1cccc2cc(-c3nc4cc5c(cc4n3C)CCN(C[C@H](N)CF)C5=O)n(CCOC(F)F)c12
Output: 11 to 100 nM

Input: // output IC50; input CN1CC(COc2cccc3cc(-c4nc5cc6c(cc5n4C)CCN(C[C@H](N)CF)C6=O)n(CC4CC4)c23)CC1=O (some centres unmarked) ; system hPAD4 enzyme (Homo sapiens (Human))
Output: 11 to 100 nM

Input: Report value only: IC50, hPAD4 enzyme (Homo sapiens (Human)), Cn1c(-c2cc3ccccc3n2CC2CC2)nc2cc3c(cc21)CCN(C[C@H]1COCCN1)C3=O
Output: 101 to 500 nM

Input: Provide the reported IC50 (system: hPAD4 enzyme (Homo sapiens (Human))) for Cn1c(-c2cc3cccc(OC(F)Cn4ccnc4)c3n2CC2CC2)nc2cc3c(cc21)CCN(C[C@H](N)CF)C3=O (single isomer, unassigned) [Example 226a]
Output: ≤ 10 nM

Input: Param request: IC50 | system hPAD4 enzyme (Homo sapiens (Human)) | item COC(=O)N(C)CCOc1cccc2cc(-c3nc4cc5c(cc4n3C)CCN(C[C@H](N)CF)C5=O)n(CC3CC3)c12
Output: ≤ 10 nM

Input: Quote hPAD4 enzyme (Homo sapiens (Human)) IC50 for entry Cn1c(-c2cc3ccccc3n2CC2CC2)nc2cc3c(cc21)CCN(C[C@H](N)CF)C3=O .
Output: 101 to 500 nM

Input: Given C[C@@H](N)CN1CCc2cc3c(cc2C1=O)nc(-c1cc2ccccc2n1CC1CC1)n3C , report its IC50 on hPAD4 enzyme (Homo sapiens (Human)).
Output: 101 to 500 nM

Input: Tell me IC50 of COC(=O)N[C@@H](C)COc1cccc2cc(-c3nc4cc5c(cc4n3C)CCN(C[C@H](N)CF)C5=O)n(CC3CC3)c12 when tested on hPAD4 enzyme (Homo sapiens (Human)).
Output: 11 to 100 nM

Input: Please indicate recorded IC50 of CCc1nc(N2CCOC2=O)ccc1-c1ccc2cc(-c3nc4cc5c(cc4n3C)CCN(C[C@H](N)CF)C5=O)n(CC3CC3)c2n1 measured with hPAD4 enzyme (Homo sapiens (Human)).
Output: 11 to 100 nM
